System: Escherichia coli
measurementProtocol: In vitro antibacterial activity against Escherichia coli EC14
Assay type: functional
Entries are sorted into classes by MIC as follows: low band = under 0.1 µg/mL, middle band = from 0.1 µg/mL up to 0.2 µg/mL, high band = 0.2 µg/mL and over

• CCCS(=O)(=O)C1=C(C(=O)O)N2C(=O)[C@@H](NC(=O)/C(=N/OCCCl)c3csc(N)n3)CN2C1 = middle band
• CCCO/N=C(/C(=O)N[C@H]1CN2CC(S(C)(=O)=O)=C(C(=O)O)N2C1=O)c1csc(N)n1 = middle band
• N#CC1=C(C(=O)O)N2C(=O)[C@@H](NC(=O)CSc3cc(Cl)ccc3Cl)CN2C1 = high band
• CCS(=O)(=O)C1=C(C(=O)O)N2C(=O)[C@@H](NC(=O)/C(=N/OCCBr)c3csc(N)n3)CN2C1 = low band
• Nc1nc(/C(=N\OCCCl)C(=O)N[C@H]2CN3CC(S(=O)(=O)Cc4ccccc4)=C(C(=O)O)N3C2=O)cs1 = high band
• CO/N=C(\C(=O)NC1CN2CC(S(C)(=O)=O)=C(C(=O)O)N2C1=O)c1csc(N)n1 (stereo not drawn) = low band
• CS(=O)(=O)C1=C(C(=O)O)N2C(=O)[C@@H](NC(=O)/C(=N/OCCCl)c3csc(N)n3)CN2C1 = middle band
• CCS(=O)(=O)C1=C(C(=O)O)N2C(=O)[C@@H](NC(=O)/C(=N/OCSC)c3csc(N)n3)CN2C1 = high band
• CCS(=O)(=O)C1=C(C(=O)O)N2C(=O)[C@@H](NC(=O)/C(=N/OCCCl)c3csc(N)n3)CN2C1 = high band
• C=CCO/N=C(/C(=O)N[C@H]1CN2CC(S(C)(=O)=O)=C(C(=O)O)N2C1=O)c1csc(N)n1 = middle band
• CCCS(=O)(=O)C1=C(C(=O)O)N2C(=O)[C@@H](NC(=O)/C(=N/OCCBr)c3csc(N)n3)CN2C1 = high band
• CCS(=O)(=O)C1=C(C(=O)O)N2C(=O)[C@@H](NC(=O)/C(=N/OCCF)c3csc(N)n3)CN2C1 = low band
• C#CCO/N=C(/C(=O)N[C@H]1CN2CC(S(C)(=O)=O)=C(C(=O)O)N2C1=O)c1csc(N)n1 = high band
• CS(=O)(=O)C1=C(C(=O)O)N2C(=O)[C@@H](NC(=O)/C(=N/OCCBr)c3csc(N)n3)CN2C1 = middle band
• N#CC1=C(C(=O)O)N2C(=O)[C@@H](NC(=O)Cc3csc(N)n3)CN2C1 = high band
• N#CC1=C(C(=O)O)N2C(=O)[C@@H](NC(=O)Cc3ccccc3)CN2C1 = high band
• CCCCO/N=C(/C(=O)N[C@H]1CN2CC(S(C)(=O)=O)=C(C(=O)O)N2C1=O)c1csc(N)n1 = high band
• C=CCCO/N=C(/C(=O)N[C@H]1CN2CC(S(C)(=O)=O)=C(C(=O)O)N2C1=O)c1csc(N)n1 = low band
• CCCS(=O)(=O)C1=C(C(=O)O)N2C(=O)[C@@H](NC(=O)/C(=N/OCCF)c3csc(N)n3)CN2C1 = middle band
• C=CCO/N=C(/C(=O)N[C@H]1CN2CC(S(=O)(=O)CCC)=C(C(=O)O)N2C1=O)c1csc(N)n1 = high band
• CC(C)=CCO/N=C(/C(=O)N[C@H]1CN2CC(S(C)(=O)=O)=C(C(=O)O)N2C1=O)c1csc(N)n1 = high band
• N#CC1=C(C(=O)O)N2C(=O)[C@@H](NC(=O)/C(=N/OCCCl)c3csc(N)n3)CN2C1 = high band
• CCCCO/N=C(/C(=O)N[C@H]1CN2CC(C#N)=C(C(=O)O)N2C1=O)c1csc(N)n1 = high band
• CCCS(=O)(=O)C1=C(C(=O)O)N2C(=O)[C@@H](NC(=O)/C(=N/OCC(F)(F)F)c3csc(N)n3)CN2C1 = high band
• N#CC1=C(C(=O)O)N2C(=O)[C@@H](NC(=O)Cn3cnnn3)CN2C1 = high band
• CC(C)(O/N=C(/C(=O)N[C@H]1CN2CC(S(C)(=O)=O)=C(C(=O)O)N2C1=O)c1csc(N)n1)C(=O)O = low band
• Nc1nc(/C(=N\OCCCl)C(=O)N[C@H]2CN3CC(S(=O)(=O)c4ccccc4)=C(C(=O)O)N3C2=O)cs1 = high band
• CS(=O)(=O)C1=C(C(=O)O)N2C(=O)[C@@H](NC(=O)/C(=N/OCCF)c3csc(N)n3)CN2C1 = low band
• N#CC1=C(C(=O)O)N2C(=O)[C@@H](NC(=O)/C(=N/OCCBr)c3csc(N)n3)CN2C1 = middle band
• CO/N=C(\C(=O)N[C@H]1CN2CC(C#N)=C(C(=O)O)N2C1=O)c1csc(N)n1 = high band
• N#CC1=C(C(=O)O)N2C(=O)[C@@H](NC(=O)CSc3ccccc3)CN2C1 = high band
• C=CCO/N=C(/C(=O)N[C@H]1CN2CC(S(=O)(=O)CC=C)=C(C(=O)O)N2C1=O)c1csc(N)n1 = middle band
• N#CC1=C(C(=O)O)N2C(=O)[C@@H](NC(=O)Cc3cccs3)CN2C1 = high band
